- Tested on: Jurkat
- assay_summary: Antiproliferative assay (resazurin, 72 h)
- Assay type: cell-based, human
- study_conditions: Homo sapiens, Jurkat; Table 1; mean ± SE; 72 h
Measured IC50 by item
recorded_endpoint: IC50

* COc1cc(Nc2cc(C)nc3nc(Nc4ccc(Cl)cc4)nn23)cc(OC)c1OC [Compound 7f] | > 10 µM
* COc1ccc(CNc2nc3nc(C)cc(Nc4cc(OC)c(OC)c(OC)c4)n3n2)cc1 [Compound 7s] | 0.9 µM
* COc1ccccc1CNc1nc2nc(C)cc(Nc3cc(OC)c(OC)c(OC)c3)n2n1 [Compound 7u] | > 10 µM
* COc1cc(Nc2cc(C)nc3nc(NCc4ccc(C#N)cc4)nn23)cc(OC)c1OC [Compound 7x] | > 10 µM
